# subjectOfTest: human beta-3-adrenergic receptor (Homo sapiens, UniProt P13945)
# Construct: Chinese hamster ovary (CHO) cells that stably express full-length human beta-3-adrenergic receptor
# Sequence (P13945 whole entry): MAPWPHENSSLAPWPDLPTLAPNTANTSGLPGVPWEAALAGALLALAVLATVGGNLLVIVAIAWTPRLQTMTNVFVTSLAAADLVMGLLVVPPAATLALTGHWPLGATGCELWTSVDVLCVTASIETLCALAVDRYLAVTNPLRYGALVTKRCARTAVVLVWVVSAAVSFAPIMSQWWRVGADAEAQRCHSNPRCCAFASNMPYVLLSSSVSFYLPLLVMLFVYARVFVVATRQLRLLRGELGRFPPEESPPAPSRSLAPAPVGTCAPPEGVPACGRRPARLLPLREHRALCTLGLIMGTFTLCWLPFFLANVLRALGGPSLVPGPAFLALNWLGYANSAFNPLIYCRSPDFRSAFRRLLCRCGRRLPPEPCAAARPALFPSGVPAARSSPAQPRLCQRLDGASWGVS
# methodNotes: cAMP production (SPA) in CHO cells stably expressing human beta-3-adrenergic receptor, agonist activity
# conditionSet: cAMP production in CHO cells expressing human beta-3-adrenergic receptor; compounds binned (≦1 μM or >1 μM); read-out: Beta-3 Agonistic Activity, EC50 values
pEC50: −log10 of the molar value.
metric: pEC50

[
  {
    "molecule": "O=C(O)c1ccc(-c2ccc3c(c2)CC[C@H](CNC[C@H](O)COc2ccc(O)cc2)O3)cc1",
    "subjectOfTest": "human beta-3-adrenergic receptor (Homo sapiens, UniProt P13945)",
    "metric": "pEC50",
    "result": "≥ 6.00"
  },
  {
    "molecule": "COc1cc(-c2ccc3c(c2)CCC(CNC[C@H](O)COc2ccccc2)O3)ccc1C(=O)O (stereo in doubt)",
    "subjectOfTest": "human beta-3-adrenergic receptor (Homo sapiens, UniProt P13945)",
    "metric": "pEC50",
    "result": "≥ 6.00"
  },
  {
    "molecule": "Nc1cc(-c2ccc3c(c2)CC[C@H](CNC[C@H](O)COc2ccccc2)O3)ccc1C(=O)O",
    "subjectOfTest": "human beta-3-adrenergic receptor (Homo sapiens, UniProt P13945)",
    "metric": "pEC50",
    "result": "≥ 6.00"
  },
  {
    "molecule": "O=C(O)c1ccc(-c2ccc3c(c2)CC[C@H](CNC[C@H](O)CSc2cccc(F)c2)O3)cc1",
    "subjectOfTest": "human beta-3-adrenergic receptor (Homo sapiens, UniProt P13945)",
    "metric": "pEC50",
    "result": "< 6.00"
  }
]

====

# subjectOfTest: human beta-3-adrenergic receptor (Homo sapiens)
# Construct: Chinese hamster ovary (CHO) cells that stably express full-length human beta-3-adrenergic receptor
# methodNotes: cAMP production (SPA) in CHO cells stably expressing human beta-3-adrenergic receptor, agonist activity
# conditionSet: cAMP production in CHO cells expressing human beta-3-adrenergic receptor; compounds binned (≦1 μM or >1 μM); read-out: Beta-3 Agonistic Activity, EC50 values
# Experimental: The cell line is grown in 90% F12 nutrient mixture (HAM), 10% fetal bovine serum, 100 units/ml penicillin G sodium, […] streptomycin sulfate, and 2 mM L-glutamine at 37° C. in 95% air and 5% CO2. The transfected cell line is maintained with G418 (800ug/ml). To test agonist activity, cells are exposed to test compound and then assayed for cAMP production. […] Test compounds are assayed from 10 μM to 3 nM with 3-fold serial dilutions. […]
Listing: EC50 of selected molecules

[
  {
    "molecule": "O=C(O)c1ccc(-c2ccc3c(c2)CC[C@H](CNC[C@H](O)COc2ccccc2)O3)cc1NC1CCC1 [Example 201]",
    "subjectOfTest": "human beta-3-adrenergic receptor (Homo sapiens)",
    "EC50": "≤ 1000 nM"
  },
  {
    "molecule": "O=C(O)CCc1ccc2c(c1)CC[C@H](CNC[C@H](O)COc1ccccc1F)O2 [Example 265]",
    "subjectOfTest": "human beta-3-adrenergic receptor (Homo sapiens)",
    "EC50": "≤ 1000 nM"
  },
  {
    "molecule": "CC(C)c1cccc(C(C)C)c1OC[C@@H](O)CNC[C@H]1CCc2cc(-c3ccc(C(=O)O)cc3)ccc2O1 [Example 140]",
    "subjectOfTest": "human beta-3-adrenergic receptor (Homo sapiens)",
    "EC50": "> 1000 nM"
  },
  {
    "molecule": "CCc1ccc(SC[C@@H](O)CNC[C@H]2CCc3cc(-c4ccc(C(=O)O)cc4)ccc3O2)cc1 [Example 170]",
    "subjectOfTest": "human beta-3-adrenergic receptor (Homo sapiens)",
    "EC50": "> 1000 nM"
  },
  {
    "molecule": "O=C(O)c1ccc(-c2ccc3c(c2)CC[C@H](CNC[C@H](O)CSc2ccccc2F)O3)cc1 [Example 174]",
    "subjectOfTest": "human beta-3-adrenergic receptor (Homo sapiens)",
    "EC50": "≤ 1000 nM"
  },
  {
    "molecule": "O=C(O)c1ccc(-c2ccc3c(c2)CC[C@H](CNC[C@H](O)COc2ccccc2O)O3)cc1 [Example 164]",
    "subjectOfTest": "human beta-3-adrenergic receptor (Homo sapiens)",
    "EC50": "≤ 1000 nM"
  },
  {
    "molecule": "COc1cccc(SC[C@@H](O)CNC[C@H]2CCc3cc(-c4ccc(C(=O)O)cc4)ccc3O2)c1 [Example 178]",
    "subjectOfTest": "human beta-3-adrenergic receptor (Homo sapiens)",
    "EC50": "> 1000 nM"
  }
]
